// data source = the Deep4Chem optical property database

assay: solvent given as SMILES; details: in CCCCCC
result type: absorption maximum (nm)
One number for each entry, in nm.

Kindly give each listed record's absorption maximum.
1. OC1(c2ccc(-c3cccs3)s2)CCC1
2. Cc1ccc(C)n1-c1ccc(N(C)C)cc1

Outgoing:
1. 308
2. 304

Kindly give each listed record's absorption maximum.
1. COc1ccccc1C1=C2C(C)=CC(C)=[N+]2[B-](F)(F)n2c(C)cc(C)c21
2. C1CCN2CCCn3c2c(c2c3=NCCN=2)C1
3. CN(C)c1ccc(C2=Cc3cc(Cl)nc[n+]3[B-](F)(F)O2)cc1
4. CC(=O)c1nc(-c2ccc(N(c3ccccc3)c3ccccc3)cc2)oc1C
5. CC1=[N+]2C(=c3c4c5ccccc5cc5cccc(c6cc(C)n(c36)[B-]2(F)F)c54)C=C1

Outgoing:
[504, 352, 444, 324, 583]

Kindly give each listed record's absorption maximum.
1. COc1ccc2c(c1)N(c1ccc(C)cc1)c1cc3c(cc1=N2)Oc1c(cc(C(C)(C)C)cc1C(C)(C)C)N=3
2. C#CCN1C(=O)/C(=C/c2cc(OC(C)C)ccc2OC(C)C)N=C1C
3. c1ccc(-c2cc(-c3ccc(N(c4ccccc4)c4ccccc4)cc3)cc(-c3ccccc3)n2)cc1
4. O=C1Nc2ccccc2/C1=C/C(=O)c1ccc(Cl)cc1Cl
5. CC(C)c1ccc2ccc3cccc4ccc1c2c34
6. CC(C)[Si](C#Cc1c2nc3c(nc2c(C#C[Si](C(C)C)(C(C)C)C(C)C)c2nc4ccccc4nc12)C1c2ccccc2C3c2ccccc21)(C(C)C)C(C)C

Outgoing:
1. 562
2. 392
3. 354
4. 334
5. 338
6. 551

Kindly give each listed record's absorption maximum.
1. CC1=CC(C)=[N+]2C1=Cc1c(C)cc(C)n1[B-]2(F)F
2. C1=C(c2ccc(-c3cccs3)s2)CCCC1
3. CCCCCCCCCCCCOc1cc2cc(N(C)C)ccc2cc1C#N

Outgoing:
[508, 341, 336]

----------
For each of the compounds below, state its absorption maximum.
assay: solvent given as SMILES; conditions: in Cc1ccccc1
Give bare numbers, in nm.

Solved entries:
smiles code	unit annotation	absorption maximum
Cc1cc(C)c(N(c2ccccc2)c2ccc(S(=O)(=O)c3ccc(S(=O)(=O)c4ccc(N(c5ccccc5)c5c(C)cc(C)cc5C)cc4)cc3)cc2)c(C)c1	nm	351
CCn1c2ccccc2c2cc(C#Cc3cc(C#Cc4ccc5c(c4)c4ccccc4n5CC)nc(N4CCCCC4)n3)ccc21	nm	395
O=Cc1c(O)c(-c2nc3ccccc3s2)cc2ccccc12	nm	358
Cc1cc(-c2nc(-c3ccccc3)nc(-c3ccccc3)n2)ccc1-n1c2ccccc2c2cc3c(cc21)C1c2ccccc2C3c2ccccc21	nm	364
C(#Cc1ccc2ccc3cccc4ccc1c2c34)c1ccccc1	nm	362

Kindly give each listed record's absorption maximum.
1. CC(C)(C)c1ccc(C2=CC3=C(c4ccccc4)c4cc(-c5ccc(C(C)(C)C)cc5)c(-c5ccc(C(C)(C)C)cc5)n4[B-](F)(F)[N+]3=C2c2ccc(C(C)(C)C)cc2)cc1
2. CC(C)c1cc(C(C)C)c(B2c3ccccc3Oc3cc(N4c5ccccc5C(C)(C)c5ccccc54)ccc32)c(C(C)C)c1
3. CCCC1=Cc2nc1ccc1[nH]c(cc1CCO)c1nc(ccc3[nH]c2cc3CCC)C(CCC)=C1
4. CCn1c2ccccc2c2cc(-c3cc(-c4ccc5c(c4)c4ccccc4n5CC)nc(C#N)n3)ccc21
5. CCOc1ccc(/C=C/C=C/C=C/c2ccc([N+](=O)[O-])cc2)cc1
6. Cc1ccc(N(c2ccc(C)cc2)c2ccc(-c3cc4c(cc(-c5ccc(N(c6ccc(C)cc6)c6ccc(C)cc6)cc5)c5nsnc54)c4nsnc34)cc2)cc1
7. CCn1c2ccccc2c2cc(-c3cc(-c4ccc5c(c4)c4ccccc4n5CC)ncn3)ccc21

Outgoing:
1. 605
2. 436
3. 637
4. 380
5. 419
6. 520
7. 360

Kindly give each listed record's absorption maximum.
1. O=S1(=O)c2ccccc2Oc2cc(N3c4ccccc4C4(c5ccccc53)c3ccccc3N(c3ccc5c(c3)Oc3ccccc3S5(=O)=O)c3ccccc34)ccc21
2. COc1ccc(N(c2ccccc2)c2cc3ccc4cc(N(c5ccccc5)c5ccc(OC)cc5)cc5ccc(c2)c3c45)cc1
3. CCOC(=O)/C=C/c1ccc(N(C)C)cc1
4. c1ccc(-c2nc3ccccc3nc2-c2cc(-c3nc4ccccc4nc3-c3ccccc3)cc(-n3c4ccccc4c4ccccc43)c2)cc1

Outgoing:
359.89
453
362
340

Incoming: Please report the recorded absorption maximum for c1ccc2cc(-n3cnc4ccccc43)ccc2c1 .
Outgoing: 275

----------
test: solvent given as SMILES; conditions: in CC#N
# if measured absorption maximum < 400 nm: y  # else: n

                                smiles_code  class
0       C=Cc1cc2ccc(OC(=O)c3ccccc3)cc2oc1=O      y
1  CCOC(=O)CN1C(=O)C2=C(c3ccc(C#N)cc3)N(CC(=O)OCC)C(=O)C2=C1c1ccc(C#N)cc1      n
2  Cc1cc2ccc(-c3cccc4cccc(-c5ccc6cc(C)c(=O)oc6c5)c34)cc2oc1=O      y

Incoming: Is the reported absorption maximum for O=C1OC(c2ccccc2)=N/C1=C\c1ccc(N(c2ccc(/C=C3\N=C(c4ccccc4)OC3=O)cc2)c2ccc(/C=C3/N=C(c4ccccc4)OC3=O)cc2)cc1 strictly below 400 nm?
Outgoing: n

Incoming: Is the reported absorption maximum for CCNc1cc2oc3c/c(=[NH+]\CC)c(C)cc-3c(-c3ccccc3C(=O)OCC)c2cc1C strictly below 400 nm?
Outgoing: n

Incoming: Is the reported absorption maximum for Cc1ccc([C@@H]2C[C@](O)(c3ccccn3)C[C@](O)(c3ccccn3)[C@H]2C(=O)c2ccc(N(c3ccccc3)c3ccccc3)cc2)cc1 strictly below 400 nm?
Outgoing: y

----------
test: solvent given as SMILES; conditions: in CCOC(C)=O
For each of the compounds below, state its absorption maximum.
A complete answer gives the number and then names the unit.

Solved entries:
smiles code	absorption maximum
COc1nc(Cl)nc(Nc2ccc3cc4ccccc4cc3c2)n1	398 nm
Cc1cc(=O)c2ccc(N)cc2o1	315 nm
COC(=O)c1ccc(C#Cc2ccc(N(C)C)cc2)cc1	357 nm
CCN(CC)c1ccc2cc(/C=C(\C#N)c3nc4ccccc4s3)c(=O)oc2c1	504 nm
CN1C(=O)/C(=C/c2ccncc2)N=C1/C=C/c1ccccc1	408 nm
CCCCCCCCC1(CCCCCCCC)c2cc(C=O)ccc2-c2ccc(/C=C/c3ccc(N(c4ccccc4)c4ccccc4)cc3)cc21	409 nm
Cc1cc(C)cc(NC(=O)c2sc(Br)nc2C)c1	282.5 nm
CC(=O)Nc1ccc(S(=O)(=O)O)c(/N=N/c2c(O)c3ccccc3n(C)c2=O)c1	434 nm

Kindly give each listed record's absorption maximum.
1. CC1(C)CC(/C=C/c2ccc(-n3ccnc3)cc2)=CC(=C(C#N)C#N)C1
2. CCn1c(-c2ccc(-c3ccc4c(c3)C(c3ccccc3)(c3ccccc3)c3ccccc3-4)cc2)c(-c2ccc3ccccc3c2)c(-c2ccc3ccccc3c2)c1-c1ccc(-c2ccc3c(c2)C(c2ccccc2)(c2ccccc2)c2ccccc2-3)cc1
3. COc1ccc2c(CC(=O)NN)coc2c1
4. CCC/N=C/c1cc2ccc(N(C)C)cc2cc1OC
5. CCN(CC)c1ccc2cc(/C=C/C3=C4CC/C(=C\c5cc6ccc(N(CC)CC)cc6oc5=O)C4=[O+][B-](F)(F)O3)c(=O)oc2c1

Outgoing:
1: 390 nm; 2: 325 nm; 3: 300 nm; 4: 369 nm; 5: 636 nm

Kindly give each listed record's absorption maximum.
1. Clc1nc(Nc2ccccc2)nc(Nc2ccc3c4cccc5cccc(c6cccc2c63)c54)n1
2. O=Cc1cc(C=O)c2ccc3c(N4CCCCC4)cc(N4CCCCC4)c4ccc1c2c43

Outgoing:
1. 442 nm
2. 514 nm

----------
For each of the compounds below, state its absorption maximum.
assay: solvent given as SMILES; conditions: in CC(C)=O
A complete answer gives the number and then names the unit.

Solved entries:
>>> df
                                smiles_code  result
0           [C-]#[N+]c1ccc(-c2ccc(N)cc2)cc1  329 nm
1            O=c1oc2ccccc2cc1-c1nc2ccccc2o1  352 nm
2  CC(C)(C)c1cc2ccc3cc(C(C)(C)C)cc4c3c2c(c1)c(=O)n1c4nc2c3cc(C(C)(C)C)cc4ccc5cc(C(C)(C)C)cc(c5c43)c21  395 nm
3  O=Cc1cc(C=O)c2ccc3c(N4CCCCC4)cc(N4CCCCC4)c4ccc1c2c43  521 nm
4  CCn1c2ccccc2c2cc(/C=C/c3cc(/C=C/c4ccc5c(c4)c4ccccc4n5CC)[n+](CCCS(=O)(=O)[O-])c(/C=C/c4ccc5c(c4)c4ccccc4n5CC)c3)ccc21  462 nm

Kindly give each listed record's absorption maximum.
1. CC1(C)c2ccccc2N(c2ccc(-c3n[n+]4c(o3)-c3ccccc3O[B-]4(F)F)cc2)c2ccccc21
2. N#CC(C#N)=C(c1cccc(N(c2ccccc2)c2ccccc2)c1)c1cccc(N(c2ccccc2)c2ccccc2)c1
3. CCC1=C(C)C2=C(C)c3cc(I)cn3[B-](F)(F)[N+]2=C1C
4. Nc1ccccc1C(=O)O

Outgoing:
1. 360 nm
2. 371.43 nm
3. 502.5 nm
4. 336 nm

Kindly give each listed record's absorption maximum.
1. CN(C)c1ccc(C#Cc2ccc3ccc4c(C#Cc5ccc(N(C)C)cc5)ccc5ccc2c3c54)cc1
2. CCC1=C(C)C2=C(C)c3cccn3[B-](F)(F)[N+]2=C1C
3. COc1ccc(/C=C/c2ccc(-c3nnc(-c4ccc(-c5cc6ccccc6s5)cc4)o3)cc2)cc1
4. COc1ccc(/C=C/C2=[O+][B-](F)(F)OC(/C=C/c3ccc(OC)c4ccccc34)=C2c2ccccc2)c2ccccc12
5. CCCCCCCCCCCCCCCCCCN1C(=O)c2cccc3c(OCCN(C)C)ccc(c23)C1=O
6. CCn1c2ccccc2c2cc(/C=C3\C(=O)c4ccccc4S3(=O)=O)ccc21
7. CCCCCCCCC1(CCCCCCCC)c2ccccc2-c2ccc(N(c3ccc(-n4c5ccccc5c5ccccc54)cc3)c3ccc4c(c3)C(CCCCCCCC)(CCCCCCCC)c3ccccc3-4)cc21
8. O=C1OC(c2ccccc2)=N/C1=C\c1ccc(N(c2ccc(/C=C3\N=C(c4ccccc4)OC3=O)cc2)c2ccc(/C=C3/N=C(c4ccccc4)OC3=O)cc2)cc1

Outgoing:
1. 447 nm
2. 495 nm
3. 341 nm
4. 549 nm
5. 362 nm
6. 442 nm
7. 345 nm
8. 499 nm

Incoming: Please report the recorded absorption maximum for Cc1ccc2occ(CC(=O)NN)c2c1 .
Outgoing: 293 nm
